B1: glmS ribozyme (parent)
chain: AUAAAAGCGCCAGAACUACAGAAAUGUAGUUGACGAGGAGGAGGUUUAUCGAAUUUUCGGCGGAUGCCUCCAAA

variants of: B1; experiment: self-cleavage kobs at 160 uM GlcN6P; higher = faster cleavage; RNA array; details: with glucosamine-6-phosphate
Variants at the floor of the assay were thinned out.
READOUT_TYPE: self-cleavage kobs at 160 uM GlcN6P

Example entries begin here.
MUT | OBSERVED
G66A C67U | 0.000398 s⁻¹
G43U G59C | < 1e-05 s⁻¹
G51U C58U | < 1e-05 s⁻¹
A14G C68U | 0.000503 s⁻¹
G44A C61G | < 1e-05 s⁻¹

Quick one: self-cleavage kobs at 160 uM GlcN6P of G29A U30G G35A G38U U46A C71G ?
< 1e-05 s⁻¹

Try this variant next: G7C C10G C70U
< 1e-05 s⁻¹
